assay: Pharmacokinetics after intravenous administration in rats; details: in vivo; Rat, IV Bolus, 1 mg/kg; kel and dependent parameters estimated using two time points; read-out: Vdss
metric-name: Vd (L/kg)
Write the value in L/kg as a bare number.

Incoming: Which Vd is listed for CO[C@@H]1[C@H](OC(=O)N2CC(CCN3CCOCC3)C2)CC[C@]2(CO2)[C@H]1[C@@]1(C)O[C@@H]1CC=C(C)C ?
Outgoing: 2.11

###

Exercise: state measured AUC(0-t) for each of the compounds provided.
experiment: Pharmacokinetics after subcutaneous administration in rabbits; type: in vivo, Rabbit; details: plasma; Rabbit, SC, 1 mg/kg
Write your answer as a measured quantity: the number, then the unit.

Incoming: Can you share its AUC(0-t)? I mean this compound: CO[C@@H]1[C@H](OC(=O)/C=C/c2ccc(OCCN(C)C)cc2)CC[C@]2(CO2)[C@H]1[C@@]1(C)O[C@@H]1CC=C(C)C [beloranib, reference compound]
Outgoing: 222 ng·h/mL

Incoming: Please look up its AUC(0-t): CO[C@@H]1[C@H](OC(=O)N2CC(CCN3CCOCC3)C2)CC[C@]2(CO2)[C@H]1[C@@]1(C)O[C@@H]1CC=C(C)C [Compound A]
Outgoing: 207 ng·h/mL

###

assay: Pharmacokinetic study in dogs, single s.c. injection (Example 3); conditions: both, beagle, dog, plasma, sc, 0.6 mg/kg
Please go through the items and note down their half-life.
Report the value in h with no unit label.

Incoming: Return reported half-life; argument: CO[C@@H]1[C@H](OC(=O)N2CC(CCN3CCOCC3)C2)CC[C@]2(CO2)[C@H]1[C@@]1(C)O[C@@H]1CC=C(C)C
Outgoing: 0.4

Incoming: State the recorded half-life for this entry: CO[C@@H]1[C@H](OC(=O)/C=C/c2ccc(OCCN(C)C)cc2)CC[C@]2(CO2)[C@H]1[C@@]1(C)O[C@@H]1CC=C(C)C [beloranib, reference compound]
Outgoing: 9.3

###

experiment: Pharmacokinetics after subcutaneous administration in humans; assay type: in vivo, Human; conditions: plasma; Human, SC, 2 mg
metric-name: half-life (h)
Answer format: numeric, h implied, no suffix.

Incoming: What measured half-life goes with CO[C@@H]1[C@H](OC(=O)/C=C/c2ccc(OCCN(C)C)cc2)CC[C@]2(CO2)[C@H]1[C@@]1(C)O[C@@H]1CC=C(C)C [beloranib, reference compound] ?
Outgoing: 8.44

###

experiment: Pharmacokinetics after subcutaneous administration in humans; type: in vivo, Human; settings: plasma; Human, SC, 2.4 mg
metric-name: half-life (min)
Write it as a number; the unit min goes unstated.

Incoming: Need half-life, item CO[C@@H]1[C@H](OC(=O)N2CC(CCN3CCOCC3)C2)CC[C@]2(CO2)[C@H]1[C@@]1(C)O[C@@H]1CC=C(C)C [Compound A]
Outgoing: 40.9

###

assay: Protein binding in human plasma (dialysis); format: in vitro ADME; conditions: Human Plasma, intended 50 nM, actual 15.5 nM; read-out: % Bound (converted)
metric-name: fraction unbound at 4 h, 50 nM
Could you respond with only the numeric value?

Incoming: Entry CO[C@@H]1[C@H](OC(=O)N2CC(CCN3CCOCC3)C2)CC[C@]2(CO2)[C@H]1[C@@]1(C)O[C@@H]1CC=C(C)C has what fraction unbound at 4 h, 50 nM?
Outgoing: 0.688

###

assay: Protein binding in rat plasma (dialysis); format: in vitro ADME; details: Rat Plasma, 480 nM; read-out: % Bound (Mean) (converted)
metric-name: fraction unbound at 480 nM
// no unit, no text: just the number

Incoming: Bench note: what fraction unbound at 480 nM did CO[C@@H]1[C@H](OC(=O)/C=C/c2ccc(OCCN(C)C)cc2)CC[C@]2(CO2)[C@H]1[C@@]1(C)O[C@@H]1CC=C(C)C [beloranib, reference compound] show?
Outgoing: 0.0326
